- procedureDetails: Volume of distribution at steady state in female Beagle dog blood at 1 mg/kg, iv
- Type: ADME, organism-based, Canis lupus familiaris
- cond: whole blood, read-out: Vdss
readoutLabel: Vd (L/kg)
Could you give me the number in L/kg? Just the number is fine.

Looking for the measured Vd of COC[C@@](O)([C@@H](Nc1cc(F)cc2[nH]c(=O)ccc12)c1ccc(OC)c(F)c1Cl)C(F)(F)F , can you help? 2.1

---

- procedureDetails: Clearance in male Wistar rat plasma at 1 mg/kg, iv
- Format: ADME, organism-based
readoutLabel: clearance (mL/min/kg)
Reply with just the number (in mL/min/kg).

I have this molecule here, COc1ccc([C@H](Nc2cc(F)cc3[nH]c(=O)ccc23)[C@](O)(CO)C(F)(F)F)c(Cl)c1F , and I need its recorded clearance. 113

---

- procedureDetails: Clearance in female Beagle dog blood at 1 mg/kg, iv
- Type: ADME, organism-based, Canis lupus familiaris
- cond: whole blood
readoutLabel: clearance (mL/min/kg)
Please respond with the number in mL/min/kg and leave the unit unwritten.

I would be grateful if you could share the reported clearance for COC[C@@](O)([C@@H](Nc1cc(F)cc2[nH]c(=O)ccc12)c1ccc(OC)c(F)c1Cl)C(F)(F)F . 20

---

The following compounds are listed with their measured pIC50 values.
- System: PBMC
- procedureDetails: Inhibition of PHA-induced IFNgamma release in human PBMC cells
- Assay type: functional, cell-based
pIC50 here: minus log base 10 of the concentration, concentration in moles per litre.

INSERT INTO measurements (smilesrepresentation, valueobserved) VALUES
  ('C[C@@H]1C[C@H]2[C@@H]3CCC4=CC(=O)C=C[C@]4(C)[C@@]3(F)[C@@H](O)C[C@]2(C)[C@@]1(O)C(=O)CO', 8.42),
  ('C[C@H]1C[C@H]2[C@@H]3CCC4=CC(=O)C=C[C@]4(C)[C@@]3(F)[C@@H](O)C[C@]2(C)[C@@]1(O)C(=O)CCl', 9.80);

Please look up its pIC50: COC[C@@](O)([C@@H](Nc1cc(F)cc2[nH]c(=O)ccc12)c1ccc(OC)c(F)c1Cl)C(F)(F)F 9.15

---

- Tested on: THP-1
- procedureDetails: Immunomodulatory activity in human THP1 cells assessed as reduction in LPS-induced IL-8 production relative to control
- Assay type: functional
The following compounds are listed with their measured Emax values.
Please reply with the bare figure in % and do not write the unit itself.

Here's what some known entries look like.
INSERT INTO assay_data (smilesrepresentation, valueobserved) VALUES
  ('COc1ccc([C@H](Nc2cc(F)cc3[nH]c(=O)ccc23)[C@](O)(CO)C(F)(F)F)c(Cl)c1F', 92),
  ('CCSC[C@@](O)([C@@H](Nc1cc(F)cc2[nH]c(=O)ccc12)c1ccc(OC)c(F)c1Cl)C(F)(F)F', 93),
  ('COC[C@@](O)([C@@H](Nc1cc(F)cc2[nH]c(=O)ccc12)c1ccc(OC)c(F)c1Cl)C(F)(F)F', 95),
  ('CCSC[C@@](O)([C@@H](Nc1cccc2nc(C)ccc12)c1ccc(OC)cc1F)C(F)(F)F', 85),
  ('CCSC[C@@](O)([C@@H](Nc1cccc2nc(C)ccc12)c1ccc(Cl)c(F)c1O)C(F)(F)F', 107),
  ('COc1ccc([C@H](Nc2cc(F)cc3[nH]c(=O)ccc23)[C@](O)(CSC)C(F)(F)F)c(Cl)c1F', 100);

Provide value of Emax for this record tested with THP-1: CCSC[C@@](O)([C@@H](Nc1cccc2nc(C)ccc12)c1ccc(Cl)c(F)c1OC)C(F)(F)F 82

This collection of values is drawn from ChEMBL document CHEMBL4622936.
